- target: JAK1 (Homo sapiens (Human))
- Sequence (P23458 whole entry): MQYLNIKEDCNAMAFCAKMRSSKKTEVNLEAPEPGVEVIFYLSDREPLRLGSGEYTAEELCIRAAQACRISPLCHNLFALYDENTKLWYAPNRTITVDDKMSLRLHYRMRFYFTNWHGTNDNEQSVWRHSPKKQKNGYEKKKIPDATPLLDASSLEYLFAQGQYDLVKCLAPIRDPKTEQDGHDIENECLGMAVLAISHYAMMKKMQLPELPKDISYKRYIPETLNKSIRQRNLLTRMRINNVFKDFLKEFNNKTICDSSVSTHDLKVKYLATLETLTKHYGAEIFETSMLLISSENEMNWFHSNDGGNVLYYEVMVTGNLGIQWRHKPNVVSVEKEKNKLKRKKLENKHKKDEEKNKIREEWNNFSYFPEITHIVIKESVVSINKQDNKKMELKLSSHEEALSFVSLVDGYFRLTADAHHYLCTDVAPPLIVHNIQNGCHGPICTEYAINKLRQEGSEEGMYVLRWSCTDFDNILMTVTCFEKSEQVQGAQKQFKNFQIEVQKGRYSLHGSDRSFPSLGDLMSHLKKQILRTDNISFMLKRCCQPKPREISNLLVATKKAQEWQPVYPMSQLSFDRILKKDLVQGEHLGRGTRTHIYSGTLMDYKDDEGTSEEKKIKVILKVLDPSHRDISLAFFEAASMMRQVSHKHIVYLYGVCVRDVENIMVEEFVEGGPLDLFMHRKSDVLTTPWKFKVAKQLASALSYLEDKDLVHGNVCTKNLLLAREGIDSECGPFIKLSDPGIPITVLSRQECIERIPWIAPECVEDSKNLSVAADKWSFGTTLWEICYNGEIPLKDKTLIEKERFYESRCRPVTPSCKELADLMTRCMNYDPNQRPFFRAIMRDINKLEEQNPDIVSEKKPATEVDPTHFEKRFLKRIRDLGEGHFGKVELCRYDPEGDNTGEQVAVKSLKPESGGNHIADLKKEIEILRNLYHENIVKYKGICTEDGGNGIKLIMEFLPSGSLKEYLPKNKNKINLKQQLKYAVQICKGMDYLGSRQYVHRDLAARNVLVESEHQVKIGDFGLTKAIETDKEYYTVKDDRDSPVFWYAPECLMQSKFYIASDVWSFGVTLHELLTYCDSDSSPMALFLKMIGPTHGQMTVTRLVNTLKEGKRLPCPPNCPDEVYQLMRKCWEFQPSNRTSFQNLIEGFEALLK
- method: Biochemical JAK kinase assay (LanthaScreen), JAK1
- condition: converted from pIC50 using Cheng-Prusoff; ATP 25 μM
value kind: JAK1 pKi
Answers are plain numbers.

Sample records with JAK1 pKi:
compound: CCCN1Cc2[nH]c(-c3n[nH]c4cc(-c5ccc(O)cc5CC)ccc34)nc2C[C@H]1C(=O)N1CC(C)(N(C)C)C1 [Example 13]
JAK1 pKi: 10.3
--
compound: CCc1cc(O)ccc1-c1ccc2c(-c3nc4c([nH]3)CN(CC)[C@H](C(=O)N3CC(C)(N(C)C)C3)C4)n[nH]c2c1 [Example 10]
JAK1 pKi: 10.4
--
compound: CCc1cc(O)c(F)cc1-c1ccc2c(-c3nc4c([nH]3)CN(C(C)C)[C@H](C(=O)N3CC(N(C)C)C3)C4)n[nH]c2c1 [Example 8]
JAK1 pKi: 10.4
--
compound: CCc1cc(O)ccc1-c1ccc2c(-c3nc4c([nH]3)CN(CC)[C@H](C(=O)N3CC(N(C)C)C3)C4)n[nH]c2c1 [Example 9]
JAK1 pKi: 10.3
--
compound: CCc1cc(O)ccc1-c1ccc2c(-c3nc4c([nH]3)CN(C(C)C)[C@H](C(=O)N3CC(C)(N(C)C)C3)C4)n[nH]c2c1 [Example 11]
JAK1 pKi: 10.0

Please turn your attention to the following entry.
Lab note: need JAK1 pKi for CCCN1Cc2[nH]c(-c3n[nH]c4cc(-c5ccc(O)cc5CC)ccc34)nc2C[C@H]1C(=O)N1CC(N(C)C)C1 [Example 12] on JAK1 (Homo sapiens (Human)), anyone have it?
10.5
